# Test system: HEK-293T
# Assay Overview: Incucyte cell viability with HEK293T; note: filed as whole numbers so only -1 and 0 and 1 occur
# Type: toxicity, cell-based
# Condition Set: human, 6 h, 10 µM, compound concentration 10 uM, replicate number 1, timepoint 6 hours
Measured Metric: Growth Rate
Give the figure by itself; no unit, no explanation.

>>> print(df.to_string())
                                   molecule  reported_value
0   Cl.Cl.c1ccc([C@@H]2C[C@H]2NC2CCNCC2)cc1               0
1  CS(=O)(=O)c1cccc(NC(=O)N(Cc2ccc(C(=O)Nc3nn[nH]n3)cc2)c2ccc(C3CCCCC3)cc2)c1               1

Now let's try a different one.
Input line: Please give measured Growth Rate of the following entry: C[S+]([O-])c1ccc(-c2nc(-c3ccncc3)c(-c3ccc(F)cc3)[nH]2)cc1 (stereo not drawn)
Output line: 0
